Tested on: setaria viridis
Assay Protocol: Herbicidal activity, pot culture method (primary and secondary screening test)
Type: in vivo
Condition Context: primary screening, pot culture, 150 g/ha, sprayed at 3-leaf stage, result 15 days later
Value Type: herbicidal activity inhibition ratio (%), Setaria viridis
Only the number, expressed in %, is required.

Which herbicidal activity inhibition ratio (%), Setaria viridis value is on record for `Cc1ccc(Cl)cc1-n1c(=O)c2cc(C(=O)C3=C(O)CCCC3=O)ccc2n(C)c1=O` ?
60

Which herbicidal activity inhibition ratio (%), Setaria viridis value is on record for Cc1cccc(-n2c(=O)c3cc(C(=O)C4=C(O)CC(C)CC4=O)ccc3n(C)c2=O)c1 (stereo not drawn) ?
100

Which herbicidal activity inhibition ratio (%), Setaria viridis value is on record for `Cn1c(=O)n(-c2cccc(Cl)c2)c(=O)c2cc(C(=O)C3=C(O)CCCC3=O)ccc21` ?
100

====

System: echinochloa crusgalli
Assay Protocol: Herbicidal activity, pot culture method (primary and secondary screening test)
Format: in vivo
Condition Context: dose 37.5 g/ha, sprayed at 3-leaf stage, investigated 15 days later
Could you label it label 1 if measured inhibition ratio, Echinochloa crusgalli is 60% or higher, and label 0 otherwise?

Decide: inhibition ratio, Echinochloa crusgalli of `Cc1c(C(=O)C2=C(O)CC(C)(C)CC2=O)ccc2c1c(=O)n(-c1ccccc1C(F)(F)F)c(=O)n2C` >= 60%?
label 1

Decide: inhibition ratio, Echinochloa crusgalli of `Cc1cccc(C)c1-n1c(=O)c2cc(C(=O)C3=C(O)CCCC3=O)ccc2n(C)c1=O` >= 60%?
label 1

Decide: inhibition ratio, Echinochloa crusgalli of `CC(C)c1ccccc1-n1c(=O)c2cc(C(=O)C3=C(O)CCCC3=O)ccc2n(C)c1=O` >= 60%?
label 1

Decide: inhibition ratio, Echinochloa crusgalli of `CCn1c(=O)n(-c2ccccc2C)c(=O)c2cc(C(=O)C3=C(O)CCCC3=O)ccc21` >= 60%?
label 1

Decide: inhibition ratio, Echinochloa crusgalli of CS(=O)(=O)c1ccc(C(=O)C2C(=O)CCCC2=O)c([N+](=O)[O-])c1 [Mesotrione, mesotrione, reference compound] >= 60%?
label 0

Decide: inhibition ratio, Echinochloa crusgalli of CCn1c(=O)n(-c2ccccc2C)c(=O)c2cc(C(=O)C3=C(O)CC(C)CC3=O)ccc21 (stereo not shown) >= 60%?
label 0

Decide: inhibition ratio, Echinochloa crusgalli of `Cn1c(=O)n(-c2ccccc2Cl)c(=O)c2cc(C(=O)C3=C(O)CC(C)(C)CC3=O)ccc21` >= 60%?
label 1

Decide: inhibition ratio, Echinochloa crusgalli of `Cc1ccccc1-n1c(=O)c2cc(C(=O)C3=C(O)CCCC3=O)ccc2n(C)c1=O` >= 60%?
label 0

Decide: inhibition ratio, Echinochloa crusgalli of `Cc1ccccc1-n1c(=O)c2cc(C(=O)C3=C(O)CC(C)(C)CC3=O)ccc2n(C)c1=O` >= 60%?
label 1
